Sourced from ChEMBL document CHEMBL5154811

# ASSAY METHOD TEXT: Volume of distribution at steady state in ICR mouse at 3 mg/kg, iv measured upto 1440 mins by LC/MS/MS analysis
# Format: ADME, organism-based
# RUN PARAMETERS: in vivo, read-out: Vdss
ASSAY ENDPOINT: Vd (L/kg)
Response body: numeric value in L/kg, unit text excluded.

What does the data say about its Vd? Entry: CCOc1cc2ncnc(Nc3ccc(Oc4cc5nncn5cn4)c(C)c3)c2cc1NC(=O)/C=C/[C@H]1CCCN1C
2.79

Could you do the same for CCOc1cc2ncnc(Nc3ccc(Oc4cc5nncn5cn4)c(C)c3)c2cc1NC(=O)/C(F)=C\[C@@H]1CCCN1C , please?
4.49

Could you do the same for CCOc1cc2ncnc(Nc3ccc(Oc4cc5nncn5cn4)c(C)c3)c2cc1NC(=O)/C(F)=C/[C@H]1CCCN1C , please?
2.96

###

# TARGET OF ASSAY: UniProt:P04626
# Sequence (P04626 whole entry): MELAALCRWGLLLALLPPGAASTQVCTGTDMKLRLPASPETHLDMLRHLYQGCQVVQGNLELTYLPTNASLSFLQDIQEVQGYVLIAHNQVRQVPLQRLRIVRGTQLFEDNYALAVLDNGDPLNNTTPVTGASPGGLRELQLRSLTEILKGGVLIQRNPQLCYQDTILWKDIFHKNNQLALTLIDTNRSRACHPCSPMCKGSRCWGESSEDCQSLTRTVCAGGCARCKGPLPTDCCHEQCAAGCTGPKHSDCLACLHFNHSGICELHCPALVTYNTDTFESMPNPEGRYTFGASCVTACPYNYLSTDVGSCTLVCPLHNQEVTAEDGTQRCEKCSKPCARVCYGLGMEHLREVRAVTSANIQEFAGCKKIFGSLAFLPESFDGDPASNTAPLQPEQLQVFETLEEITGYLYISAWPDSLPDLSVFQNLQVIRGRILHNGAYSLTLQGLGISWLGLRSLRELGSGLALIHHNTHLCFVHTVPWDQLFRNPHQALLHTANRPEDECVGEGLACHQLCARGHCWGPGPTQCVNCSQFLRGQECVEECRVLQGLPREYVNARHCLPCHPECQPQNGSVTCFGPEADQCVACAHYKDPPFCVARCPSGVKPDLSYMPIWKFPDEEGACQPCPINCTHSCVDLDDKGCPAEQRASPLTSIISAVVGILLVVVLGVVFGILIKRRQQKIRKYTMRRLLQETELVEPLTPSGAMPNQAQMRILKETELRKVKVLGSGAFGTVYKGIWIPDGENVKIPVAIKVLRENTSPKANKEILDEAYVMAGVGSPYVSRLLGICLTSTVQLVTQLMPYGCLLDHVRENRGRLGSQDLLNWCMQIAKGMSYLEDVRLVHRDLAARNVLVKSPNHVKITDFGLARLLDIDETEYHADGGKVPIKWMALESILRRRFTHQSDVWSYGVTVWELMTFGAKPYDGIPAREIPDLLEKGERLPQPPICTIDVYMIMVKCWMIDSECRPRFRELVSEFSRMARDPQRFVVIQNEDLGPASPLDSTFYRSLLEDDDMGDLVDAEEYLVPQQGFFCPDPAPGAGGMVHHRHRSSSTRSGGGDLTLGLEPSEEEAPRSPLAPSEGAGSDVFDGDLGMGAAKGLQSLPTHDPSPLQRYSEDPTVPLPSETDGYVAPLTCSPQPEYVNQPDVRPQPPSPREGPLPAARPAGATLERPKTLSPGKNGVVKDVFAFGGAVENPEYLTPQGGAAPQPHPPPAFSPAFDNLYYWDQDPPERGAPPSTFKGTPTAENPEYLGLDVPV
# ASSAY METHOD TEXT: Inhibition of wild type human GST-tagged HER2 (676 to end residues) expressed in baculovirus infected Sf9 cells incubated for 30 mins in presence of ATP by HTRF analysis
Entries annotated with measured IC50
Response body: numeric value in nM, unit text excluded.

Cc1cc(Nc2ncnc3cc(O)c(NC(=O)/C=C/[C@H]4CCCN4C)cc23)ccc1Oc1ccc2nccn2c1
6.42

What does the data say about its IC50? Entry: Cc1cc(Nc2c(C#N)cnc3ccc(NC(=O)/C=C/CN(C)C)cc23)ccc1Oc1cc2nncn2cn1
62.3

Could you do the same for Cc1cc(Nc2ncnc3ccc(NC(=O)/C=C/CN(C)C)cc23)ccc1Oc1cc2nncn2cn1 , please?
2.85

Could you do the same for Cc1cc(Nc2ncnc3cc(O)c(NC(=O)/C=C/[C@H]4CCCN4C)cc23)ccc1Oc1ccn2ncnc2c1 , please?
1.43

Could you do the same for Cc1cc(Nc2ncnc3cc(O)c(NC(=O)/C=C/[C@H]4CCCN4C)cc23)ccc1Oc1cnc2ccnn2c1 , please?
2.41

Could you do the same for Cc1cc(Nc2ncnc3ccc(NC(=O)/C=C/[C@H]4CCCN4C)cc23)ccc1Oc1cc2nncn2cn1 , please?
1.4

Could you do the same for COCC(=O)NC/C=C/c1ccc2ncnc(Nc3ccc(Oc4cc5nncn5cn4)c(C)c3)c2c1 , please?
2.55

Could you do the same for CCOc1cc2ncnc(Nc3ccc(Oc4cc5nncn5cn4)c(C)c3)c2cc1NC(=O)/C(F)=C\[C@@H]1CCCN1C , please?
3.68

###

# ASSAY METHOD TEXT: Volume of distribution at steady state in cynomolgus monkey at 1 mg/kg, iv measured upto 1440 mins by LC/MS/MS analysis
# Format: ADME, organism-based, Macaca fascicularis
# RUN PARAMETERS: in vivo, read-out: Vdss
ASSAY ENDPOINT: Vd (L/kg)
Response body: numeric value in L/kg, unit text excluded.

What does the data say about its Vd? Entry: CCOc1cc2ncnc(Nc3ccc(Oc4cc5nncn5cn4)c(C)c3)c2cc1NC(=O)/C(F)=C/[C@H]1CCCN1C
3.71

###

# ASSAY METHOD TEXT: Tmax in cynomolgus monkey at 15 mg/kg, po measured upto 1440 mins by LC/MS/MS analysis
# Assay type: ADME, organism-based, Macaca fascicularis
# RUN PARAMETERS: in vivo
ASSAY ENDPOINT: Tmax (h)
Response body: numeric value in h, unit text excluded.

What does the data say about its Tmax? Entry: CCOc1cc2ncnc(Nc3ccc(Oc4cc5nncn5cn4)c(C)c3)c2cc1NC(=O)/C(F)=C/[C@H]1CCCN1C
7.5
